Molecular target: VLA-4 (Homo sapiens, UniProt P05556+P13612)
Sequence (P13612 34-1032): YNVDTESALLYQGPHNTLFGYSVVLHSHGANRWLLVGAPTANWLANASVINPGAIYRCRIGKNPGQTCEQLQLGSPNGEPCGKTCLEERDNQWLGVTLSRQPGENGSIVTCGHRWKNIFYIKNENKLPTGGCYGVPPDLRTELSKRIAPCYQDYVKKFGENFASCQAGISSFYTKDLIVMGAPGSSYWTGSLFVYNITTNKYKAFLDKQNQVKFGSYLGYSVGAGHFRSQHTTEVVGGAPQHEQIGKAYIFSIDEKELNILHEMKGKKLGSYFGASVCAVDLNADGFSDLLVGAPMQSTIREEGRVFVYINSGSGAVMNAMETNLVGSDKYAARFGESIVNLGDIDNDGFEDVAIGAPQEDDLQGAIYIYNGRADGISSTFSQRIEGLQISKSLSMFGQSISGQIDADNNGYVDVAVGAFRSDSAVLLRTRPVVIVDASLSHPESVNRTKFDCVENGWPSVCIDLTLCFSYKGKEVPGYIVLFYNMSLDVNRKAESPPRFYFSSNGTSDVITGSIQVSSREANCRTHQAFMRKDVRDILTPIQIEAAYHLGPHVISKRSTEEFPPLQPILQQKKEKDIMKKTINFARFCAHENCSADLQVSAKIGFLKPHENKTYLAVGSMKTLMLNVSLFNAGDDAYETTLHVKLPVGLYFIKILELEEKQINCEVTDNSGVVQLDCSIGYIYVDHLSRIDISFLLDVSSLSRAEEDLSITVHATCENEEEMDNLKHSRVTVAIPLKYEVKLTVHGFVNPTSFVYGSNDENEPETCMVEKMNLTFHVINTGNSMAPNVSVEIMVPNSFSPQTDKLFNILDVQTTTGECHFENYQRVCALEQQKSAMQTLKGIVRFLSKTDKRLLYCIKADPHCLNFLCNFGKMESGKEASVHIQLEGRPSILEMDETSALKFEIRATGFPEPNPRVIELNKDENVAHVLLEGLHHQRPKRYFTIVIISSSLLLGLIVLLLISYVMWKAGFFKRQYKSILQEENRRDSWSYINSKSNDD
Sequence (P05556 21-798): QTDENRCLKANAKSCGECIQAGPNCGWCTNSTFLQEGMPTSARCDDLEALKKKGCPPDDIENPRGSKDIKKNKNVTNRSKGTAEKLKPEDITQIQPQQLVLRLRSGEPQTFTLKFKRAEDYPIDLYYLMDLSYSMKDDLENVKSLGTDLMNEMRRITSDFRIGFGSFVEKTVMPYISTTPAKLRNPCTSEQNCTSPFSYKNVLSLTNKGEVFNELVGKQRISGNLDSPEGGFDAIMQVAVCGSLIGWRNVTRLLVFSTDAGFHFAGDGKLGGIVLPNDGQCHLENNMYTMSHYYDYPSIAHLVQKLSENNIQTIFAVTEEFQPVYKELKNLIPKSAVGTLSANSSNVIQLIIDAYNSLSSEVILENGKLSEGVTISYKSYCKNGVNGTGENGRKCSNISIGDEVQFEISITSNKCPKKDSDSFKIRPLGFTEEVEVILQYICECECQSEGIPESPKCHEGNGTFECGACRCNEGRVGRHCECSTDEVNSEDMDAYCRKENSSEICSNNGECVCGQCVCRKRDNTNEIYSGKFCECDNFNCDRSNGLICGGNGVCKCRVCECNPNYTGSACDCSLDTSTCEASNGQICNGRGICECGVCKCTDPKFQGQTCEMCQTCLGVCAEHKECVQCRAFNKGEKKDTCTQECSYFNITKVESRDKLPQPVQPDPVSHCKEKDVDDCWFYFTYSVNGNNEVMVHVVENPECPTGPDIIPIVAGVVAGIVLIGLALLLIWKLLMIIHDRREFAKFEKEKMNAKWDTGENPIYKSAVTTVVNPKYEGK
Test: In vitro binding assay: 51Cr-labeled Jurkat cells to solid phase-bound CS-1 peptide (SEQ ID NO:5)
Type: cell-based
Set-up: inflammatory cells that contain the VLA-4 receptor [Jurkat cells; host or cells: Jurkat cells (human T lymphoblastic line)
Settings: Table 2; normalized IC50 potency relative to standard peptide SEQ ID NO:6; Jurkat cells, CS-1
Positions of bridges follow the written chain, without caps; N, C: chain ends. Residues, ends and D or L forms follow the SMILES beside them.
Entries and their Relative Potency values follow.
Lab note: write the figure by itself, no unit.

>  <compound>
CC(C)C[C@@H]1NC(=O)[C@H](Cc2ccccc2)NC(=O)[C@@H](N)CSSC[C@@H](C(N)=O)NC(=O)[C@@H]2CCCN2C(=O)[C@H](Cc2ccccc2)NC(=O)[C@H](CC(=O)O)NC1=O [drawing 7] (H-CFLDFPC-NH2; disulfide 1-7)

>  <quantitative.readout>
254

$$$$

Q: Record request: Relative Potency value, item CC(C)C[C@@H]1NC(=O)[C@H](Cc2ccccc2)NC(=O)[C@H](CCC(=O)O)NC(=O)[C@@H](N)CSSC[C@@H](C(N)=O)NC(=O)[C@H](CO)NC(=O)[C@@H]2CCCN2C(=O)[C@H](Cc2ccccc2)NC(=O)[C@H](CC(=O)O)NC1=O [drawing 34] (H-CEFLDFPSC-NH2; disulfide 1-9)
Ans: 6.26
